These measurements were taken from patent US20230250096A1.

System: KO-52 cells
Assay: Proliferation assay (spheroid confluence, 8 days), KO-52 control cell line
Format: cell-based, human
Conditions: Homo sapiens, read-out: spheroid assay_KO-52 IC50
Kindly state IC50 for each of the entries shown.
Answer with a number only, understood to be in µM.

Provide the reported IC50 (system: KO-52 cells) for COCCN(C)CCC[C@H](C(C)C)N1CC[C@H](Cc2cn(-c3ccc(F)cc3C(=O)N(C)C(C)C)c3cncc(Cl)c23)C1 (single isomer, unassigned)
7.8

Give IC50 only, for Cc1cncc2c1c(C[C@@H]1CCN(C[C@H]3CCCCN3)C1)cn2-c1ccc(F)cc1C(=O)N(C)C(C)C , using KO-52 cells data.
11.8

Report value: IC50, system: KO-52 cells, compound: CNC(=O)N1CCC(CN2CCC(Cc3cn(-c4ccc(F)cc4C(=O)N(C)C(C)C)c4cncc(C)c34)CC2)CC1
3.4

Name the value of IC50 reported for CC(=O)N1CCC(C(C)N2CCC(Cc3cn(-c4ccc(F)cc4C(=O)N(C)C(C)C)c4cncc(C)c34)C2)CC1 (single isomer, unassigned) [Compound 116a] when tested on KO-52 cells.
3.8
